- tested-on: human V1a receptor (Homo sapiens, UniProt P37288)
- Construct: host or cells: CHO cells
- Sequence (P37288 whole entry): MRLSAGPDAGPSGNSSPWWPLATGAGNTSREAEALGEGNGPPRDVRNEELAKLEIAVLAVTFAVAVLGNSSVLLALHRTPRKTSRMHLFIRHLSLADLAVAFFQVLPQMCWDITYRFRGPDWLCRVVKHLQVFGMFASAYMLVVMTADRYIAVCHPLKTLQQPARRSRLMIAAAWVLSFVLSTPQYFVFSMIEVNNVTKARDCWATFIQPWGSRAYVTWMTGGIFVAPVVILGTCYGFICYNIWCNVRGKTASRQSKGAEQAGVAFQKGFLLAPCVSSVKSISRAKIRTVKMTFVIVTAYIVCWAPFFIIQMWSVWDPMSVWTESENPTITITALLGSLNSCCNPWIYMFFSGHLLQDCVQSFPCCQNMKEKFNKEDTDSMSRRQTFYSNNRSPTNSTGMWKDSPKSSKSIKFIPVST
- assay-overview: Human vasopressin V1a receptor binding assay (3H-AVP competition, hV1a cell line)
- test-parameters: CHO cells expressing human V1a, 1 nM 3H-AVP; read-out: V1a Binding Affinity IC50
measurement-label: IC50

Some compounds with known IC50 results, for comparison:
compound	IC50
C[C@@H](NC(=O)[C@@H](CC(=O)N1CCC(N2CCCCC2)CC1)N1C(=O)[C@@H](N2C(=O)OC[C@@H]2c2cccc(Cl)c2)[C@H]1/C=C/c1ccccc1)c1ccccc1	2.8 nM
CC(C(=O)NCc1cccc(C(F)(F)F)c1)(C(=O)N1CCC(N2CCCCC2)CC1)N1C(=O)[C@@H](N2C(=O)OC[C@@H]2c2ccccc2)[C@H]1/C=C/c1ccccc1 (mixture of isomers)	2.37 nM
O=C(NCc1cccc(C(F)(F)F)c1)C(CC(=O)N1CCN(CCN2CCCC2)CC1)N1C(=O)C(N2C(=O)OCC2c2ccccc2)C1C=Cc1ccccc1 (centres unmarked)	< 100 nM
O=C(N[C@@H]1CCCc2ccccc21)[C@H](CCC(=O)N1CCN(C2CCCCC2)CC1)N1C(=O)[C@@H](N2C(=O)OC[C@@H]2c2ccccc2)[C@H]1/C=C/c1ccco1	10 nM

We next turn to a different compound, shown below.
Any idea what IC50 came out for O=C(NCc1cc(Cl)cc(Cl)c1)[C@H](CCC(=O)N1CCN(C2CCCCC2)CC1)N1C(=O)[C@@H](N2C(=O)OC[C@@H]2c2ccccc2)[C@H]1/C=C/c1ccccc1 on human V1a receptor (Homo sapiens, UniProt P37288)?
1.27 nM

---

- tested-on: human V1a receptor (Homo sapiens, UniProt P37288)
- Construct: host or cells: CHO cells
- assay-overview: Inhibition of phosphatidylinositol turnover (V1a)
- Assay type: cell-based
- test-parameters: versus 10 nM AVP, hV1a cells; read-out: IC50, suppression of the action of AVP (inositol phosphates)
measurement-label: pIC50
Quick note: pIC50 means taking -log10 of the concentration in moles per liter.

Reported pIC50 for CN(Cc1cccc(C(F)(F)F)c1)C(=O)[C@@H](CC(=O)N1CCC(N2CCCCC2)CC1)N1C(=O)[C@@H](N2C(=O)OC[C@@H]2c2ccccc2)[C@H]1C=Cc1ccccc1 : what is it?
8.57

Data provenance: patent US9376424B2
